# Test system: A549
# protocol summary: NCI tumour cell line growth inhibition, 48 h
Active and inactive are the calls of the source. No stated cut-off is given here; in the data, active = GI50 up to about 1.1 µM and inactive = higher.
Choose the fitting class; nothing outside y for active, n for inactive is accepted.

Some solved entries appear below for comparison.
CC#CC1C2CCCC1(CSc1ccccc1)NC(=O)O2 (stereo unspecified) ... n
COC(=O)C1Cc2c(OC)ccc(OC)c2CC(C(=O)OC)C1=O (stereo unspecified) ... n
COc1c(C)c(C/C=C(\C)CCCCO)c(OC)c2ccccc12 ... n
O=C1C2=Cc3ccccc3CCN2c2ccccc21 ... n
Cn1c2ccccc2n2c3ncccc3c(=O)cc12 ... n
NC(=O)N/N=C\CC(O)(C(F)(F)Cl)C(F)(F)Cl ... n
O=C1CC(C(CC(=O)c2ccccc2)c2ccccc2)C(=O)c2ccccc2N1 (stereo unspecified) ... n
CSC1C(=O)Nc2ccc3ccccc3c21 (stereo unspecified) ... n

Ask | // param item: Cc1c2c(OCCCCN3CCN(c4ncccn4)CC3)nn(C)c(=O)c2c(C)n1-c1ccccc1 ; yields the recorded call
Reply | n

Ask | Dear all, I need the recorded test outcome for COc1cc2c(c(OC)c1OC)-c1cccc(=O)cc1C(NC(C)=O)CC2 (stereo unspecified) , thank you.
Reply | y

Ask | Just curious, what result did O=C(O)C1CCC(=O)N1C(=O)COc1cc(Cl)c(Cl)cc1Cl (stereo unspecified) get here?
Reply | n

Ask | Record lookup: outcome of this test for c1ccc2c(c1)CCc1c(-c3ccncc3)n[nH]c1-2 ?
Reply | n

Ask | // return assay outcome for CCOC(=O)Cc1ccc(Nc2nc3cc(F)c(F)cc3nc2C(=O)OCC)cc1
Reply | n

====

# Test system: RXF 631
# protocol summary: NCI tumour cell line growth inhibition, 48 h
Active and inactive are the calls of the source. Rule as the data show it: active = GI50 up to about 1.1 µM and inactive = higher.
reported metric: GI50

Ask | Quick one: GI50 for COCCN1C2=CCCCC2=Nc2c(N)nc(N)nc21 ?
Reply | > 100 µM (inactive)

====

Item-by-item account of GI50
# Test system: HT-29
# protocol summary: NCI tumour cell line growth inhibition, 48 h
Activity calls are given as the source filed them. Cut-off read from the data, not from the text of the source: active = GI50 up to about 1.1 µM and inactive = higher.

These recorded examples may help you get a feel for the data.
O=c1c2ccccc2nc(-c2ccccc2)n1NC1OC(CO)C(O)C(O)C1O (stereo unspecified) ... > 100 µM (inactive)
Cc1oc2c(c1C)S(=O)(=O)C(C#N)=CN2 ... > 100 µM (inactive)
CC1C2CC(CC2=O)C1(C)C (stereo unspecified) ... > 100 µM (inactive)

Ask | Find the measured GI50: item O=C1O/C(=C(\Br)c2ccc([N+](=O)[O-])cc2)c2ccccc21 , target or system HT-29.
Reply | 41.1 µM (inactive)

Ask | Value wanted: GI50 (HT-29) of entry Cn1c2ccccc2n2c(=O)c3cccnc3c(C#N)c12
Reply | 63 µM (inactive)

Ask | Find GI50 (HT-29) for the entry N#Cc1c(-c2ccccc2)c(C#N)c(=O)n(NS(=O)(=O)c2ccccc2)c1O
Reply | > 100 µM (inactive)

Ask | Fill in the recorded GI50 for this molecule, with HT-29 as test system: OCCC1(O)CCC(O)CC1 (stereo unspecified)
Reply | > 100 µM (inactive)

Ask | Provide value of GI50 for this record tested with HT-29: COc1cc2c(cc1OC)C(=O)/C(=C/c1ccc([N+](=O)[O-])cc1)CC2
Reply | > 10 µM (inactive)

Ask | Which measured GI50 belongs to CN(C)Cc1cc(C(=O)/C=C/c2c(F)cccc2Cl)cc(CN(C)C)c1O , tested on HT-29?
Reply | 10.9 µM (inactive)

Ask | API: value(readout=GI50, system=HT-29) for record CCCC(=O)N(C(=O)CCC)C1=C(Cl)C(=O)c2ccccc2C1=O
Reply | 8.51 µM (inactive)

Ask | # query: GI50 | item N#Cc1[nH]c(=O)n(-c2ccc([N+](=O)[O-])cc2)c1N | system: HT-29
Reply | > 10 µM (inactive)
